Reference source: patent EP4745156A1

# measured_target: His-tagged canine IL-31 (interleukin 31) recombinant protein (canine)
# method_description: cell-based or functional assay
property_measured: pSTAT IC50 (µg/mL)
Lab book: enter the figure in µg/mL, no units written.

B2-H1K2-canIgGB (antibody, V domains shown) VH: EVQLVESGGDLVKPGGSLRLSCVASGFTFSDAWMDWVRQAPGKGLQWLAEIRSRAESHATYYAESVKGRFTISRDDAKNTVYLQMNSLRAEDTAVYYCTPASTMITTGWFAYWGQGTLVTVSS VL: DIVMTQTPLSLSVSPGETASISCRASQNISVYLHWYRQKPGQSPQVLIKYVSQSISGVPDRFSGSGSGSDFTLRISRVEADDTGVYYCQNGHSFPYTFGQGTKLEIKR :: 9.2

Query block: Any idea what pSTAT IC50 (µg/mL) was measured for 7475-H1K1-canIgGB (antibody, V domains shown) VH: EVQLVESGGDLVKPGGSLRLSCVASGFTFSSYAMSWVRQAPGKGLQWVAYISNGGDYIFYADTVKGRFTISRDNARNTLYLQMNSLRSEDTAVYYCTRRGHYNTSSYWYFDVWGQGTLVTVSS VL: EIVMTQSPASLSLSQEEKVTITCKASENVGTYVSWYQQKPGQAPKLLIYGASNRYTGVPSRFSGSGSGTDFTFTISSLEPEDVAVYYCGQSYSYPPTFGAGTKVELKR ?
Result block: 8.4
